# System: Mycobacterium smegmatis (ATCC607)
# procedure_text: In-vitro anti-bacterial activity against strain M. smegmatis ATCC607 (Alamar Blue growth inhibition)
# Format: cell-based
# experimental_context: Mycolicibacterium smegmatis, 90% inhibitory concentration for bacterial growth, 48 hours at 37° C., read-out: IC90 (μg/ml) MSM 607

compound: COc1nc2ccc(Br)cc2cc1C(c1ccc(Cl)cc1)C1(O)CCN(Cc2ccccc2)CC1 (centres unmarked)
target_or_test_system: Mycobacterium smegmatis (ATCC607)
value_modifier: >
IC90 / µg/mL: 13.9

compound: COc1nc2ccc(Br)cc2cc1C(c1ccc(Cl)cc1)C1(O)CCN(C)CC1 (centres unmarked)
target_or_test_system: Mycobacterium smegmatis (ATCC607)
value_modifier: =
IC90 / µg/mL: 2.39

compound: COc1nc2ccc(Br)cc2cc1C(c1ccc(Cl)cc1)C1(O)CCN(C(=N)N)CC1 (centres unmarked)
target_or_test_system: Mycobacterium smegmatis (ATCC607)
value_modifier: =
IC90 / µg/mL: 6.34

compound: COc1nc2ccc(CO)cc2cc1C(c1ccc(Cl)cc1)C1(O)CCN(Cc2ccccc2)CC1 (centres unmarked)
target_or_test_system: Mycobacterium smegmatis (ATCC607)
value_modifier: =
IC90 / µg/mL: 16.3

compound: COc1nc2ccc(Br)cc2cc1C(c1ccc(S(C)(=O)=O)cc1)C1(O)CCN(Cc2ccccc2)CC1 (centres unmarked)
target_or_test_system: Mycobacterium smegmatis (ATCC607)
value_modifier: =
IC90 / µg/mL: 3.76
